All figures here come from patent US8383619B2.

test details: Liver homogenate stability
Type: in vitro ADME
experimental conditions: 1 μM, 37° C., 120 mins
Text: The breakdown of a prodrug in vivo could occur in one or more of several different compartments including for example, but not limited to blood/plasma, liver, stomach, target tissue (e.g. tumour). […] The potential for pro-drug molecules to deliver the active parent drug may be assessed in vitro by measuring the breakdown of a pro-drug in the presence of relevant body fluids. […]
endpoint: Percentage remaining Mouse Liver (%)
Give the value, in units of %, as a plain number.

Worked cases, Percentage remaining Mouse Liver given:
>>> print(df.to_string())
                  compound_structure_string  quantity_unit  result
0  COCOc1cc(O)c(C(=O)N2Cc3ccc(CN4CCN(C)CC4)cc3C2)cc1C(C)C              %      79
1  COCOc1cc(O)c(C(C)C)cc1C(=O)N1Cc2ccc(CN3CCN(C)CC3)cc2C1              %     115
2  CC(C)c1cc(C(=O)N2Cc3ccc(CN4CCN(C)CC4)cc3C2)c(OC(=O)N2CCOCC2)cc1O              %      45
3  CCN(CC)C(=O)Oc1cc(OC(=O)N(CC)CC)c(C(C)C)cc1C(=O)N1Cc2ccc(CN3CCN(C)CC3)cc2C1              %      60
4  CC(C)c1cc(C(=O)N2Cc3ccc(CN4CCN(C)CC4)cc3C2)c(OC(=O)OC(C)(C)C)cc1OC(=O)N(C)C              %       0

Answer with the recorded Percentage remaining Mouse Liver of CCN(CC)C(=O)Oc1cc(O)c(C(=O)N2Cc3ccc(CN4CCN(C)CC4)cc3C2)cc1C(C)C only.
26

Given CC(C)c1cc(C(=O)N2Cc3ccc(CN4CCN(C)CC4)cc3C2)c(O)cc1OC(=O)N1CCCC1 , respond with its Percentage remaining Mouse Liver.
0
